Taken from ChEMBL document CHEMBL1146197.

Test system: Escherichia coli
assayRemarks: Activity of Escherichia coli BL21(DE3) beta-lactamase TEM36
measuredParameter: kcat

Field request: kcat | item: CC(=O)OCC1=C(C(=O)O)N2C(=O)[C@@H](NC(=O)Cc3cccs3)[C@H]2SC1 [CEPHALOTHIN]
18.4 s⁻¹

Field request: kcat | item: CO/N=C(\C(=O)N[C@@H]1C(=O)N2C(C(=O)[O-])=C(C[N+]3(C)CCCC3)CS[C@H]12)c1csc(N)n1
< 0.1 s⁻¹

Field request: kcat | item: C[C@H]1[C@H](NC(=O)/C(=N\OC(C)(C)C(=O)O)c2csc(N)n2)C(=O)N1S(=O)(=O)O (stereo in doubt) [AZTREONAM]
< 0.1 s⁻¹

Field request: kcat | item: CC1(C)S[C@@H]2[C@H](NC(=O)[C@H](N)c3ccc(O)cc3)C(=O)N2[C@H]1C(=O)O [AMOXICILLIN]
624 s⁻¹

Field request: kcat | item: CC1(C)S[C@@H]2[C@H](NC(=O)[C@H](C(=O)O)c3ccsc3)C(=O)N2[C@H]1C(=O)O [TICARCILLIN]
176 s⁻¹

###

I'd be grateful if you could share measured kcat/Km for these entries.
Test system: Escherichia coli
assayRemarks: Activity of Escherichia coli BL21(DE3) beta-lactamase TEM36

# get_value(readout= kcat/Km, system= Escherichia coli) for CC1(C)S[C@@H]2[C@H](NC(=O)[C@H](N)c3ccc(O)cc3)C(=O)N2[C@H]1C(=O)O [AMOXICILLIN]
5.5e+06 M⁻¹ s⁻¹

# get_value(readout= kcat/Km, system= Escherichia coli) for CC1(C)S[C@@H]2[C@H](NC(=O)[C@H](C(=O)O)c3ccsc3)C(=O)N2[C@H]1C(=O)O [TICARCILLIN]
1.3e+06 M⁻¹ s⁻¹

# get_value(readout= kcat/Km, system= Escherichia coli) for CC(=O)OCC1=C(C(=O)O)N2C(=O)[C@@H](NC(=O)Cc3cccs3)[C@H]2SC1 [CEPHALOTHIN]
50000 M⁻¹ s⁻¹

# get_value(readout= kcat/Km, system= Escherichia coli) for CCN1CCN(C(=O)N[C@@H](C(=O)N[C@@H]2C(=O)N3[C@@H]2SC(C)(C)[C@@H]3C(=O)O)c2ccccc2)C(=O)C1=O [PIPERACILLIN]
7.1e+06 M⁻¹ s⁻¹

###

Tested on: Escherichia coli
assayRemarks: Activity of Escherichia coli BL21(DE3) beta-lactamase TEM29
measuredParameter: Km (µM)
Could you give me the number in µM? Just the number is fine.

Field request: Km | item: CC(=O)OCC1=C(C(=O)O)N2C(=O)[C@@H](NC(=O)Cc3cccs3)[C@H]2SC1
205

Field request: Km | item: CC(C)(O/N=C(\C(=O)N[C@@H]1C(=O)N2C(C(=O)[O-])=C(C[n+]3ccccc3)CS[C@H]12)c1csc(N)n1)C(=O)O
215

Field request: Km | item: CC1(C)S[C@@H]2[C@H](NC(=O)[C@H](C(=O)O)c3ccsc3)C(=O)N2[C@H]1C(=O)O
14

Field request: Km | item: CC1(C)S[C@@H]2[C@H](NC(=O)[C@H](N)c3ccc(O)cc3)C(=O)N2[C@H]1C(=O)O
26

###

Tested on: Escherichia coli
assayRemarks: Activity of Escherichia coli BL21(DE3) beta-lactamase TEM28
I'd be grateful if you could share measured Km for these entries.

Field request: Km | item: CC1(C)S[C@@H]2[C@H](NC(=O)[C@H](C(=O)O)c3ccsc3)C(=O)N2[C@H]1C(=O)O
9 µM

Field request: Km | item: CC1(C)S[C@@H]2[C@H](NC(=O)[C@H](N)c3ccc(O)cc3)C(=O)N2[C@H]1C(=O)O
12 µM

Field request: Km | item: CO/N=C(\C(=O)N[C@@H]1C(=O)N2C(C(=O)O)=C(COC(C)=O)CS[C@H]12)c1csc(N)n1
50 µM

Field request: Km | item: CO/N=C(\C(=O)N[C@@H]1C(=O)N2C(C(=O)[O-])=C(C[N+]3(C)CCCC3)CS[C@H]12)c1csc(N)n1
72 µM

Field request: Km | item: C[C@H]1[C@H](NC(=O)/C(=N\OC(C)(C)C(=O)O)c2csc(N)n2)C(=O)N1S(=O)(=O)O (stereo in doubt)
75 µM

Field request: Km | item: CC(C)(O/N=C(\C(=O)N[C@@H]1C(=O)N2C(C(=O)[O-])=C(C[n+]3ccccc3)CS[C@H]12)c1csc(N)n1)C(=O)O
240 µM

Field request: Km | item: CC(=O)OCC1=C(C(=O)O)N2C(=O)[C@@H](NC(=O)Cc3cccs3)[C@H]2SC1
288 µM

Field request: Km | item: CCN1CCN(C(=O)N[C@@H](C(=O)N[C@@H]2C(=O)N3[C@@H]2SC(C)(C)[C@@H]3C(=O)O)c2ccccc2)C(=O)C1=O
27 µM

###

Tested on: Escherichia coli
assayRemarks: Activity of Escherichia coli BL21(DE3) beta-lactamase TEM36
measuredParameter: kcat

Field request: kcat | item: CC(C)(O/N=C(\C(=O)N[C@@H]1C(=O)N2C(C(=O)[O-])=C(C[n+]3ccccc3)CS[C@H]12)c1csc(N)n1)C(=O)O
< 0.1 s⁻¹

Field request: kcat | item: CCN1CCN(C(=O)N[C@@H](C(=O)N[C@@H]2C(=O)N3[C@@H]2SC(C)(C)[C@@H]3C(=O)O)c2ccccc2)C(=O)C1=O
1220 s⁻¹

Field request: kcat | item: CO/N=C(\C(=O)N[C@@H]1C(=O)N2C(C(=O)O)=C(COC(C)=O)CS[C@H]12)c1csc(N)n1
< 0.1 s⁻¹

###

System: Escherichia coli
assayRemarks: Activity of Escherichia coli BL21(DE3) beta-lactamase TEM29
measuredParameter: kcat/Km (M⁻¹ s⁻¹)
Could you give me the number in M⁻¹ s⁻¹? Just the number is fine.

Field request: kcat/Km | item: CO/N=C(\C(=O)N[C@@H]1C(=O)N2C(C(=O)O)=C(COC(C)=O)CS[C@H]12)c1csc(N)n1
40000

Field request: kcat/Km | item: CC(=O)OCC1=C(C(=O)O)N2C(=O)[C@@H](NC(=O)Cc3cccs3)[C@H]2SC1
610000

Field request: kcat/Km | item: C[C@H]1[C@H](NC(=O)/C(=N\OC(C)(C)C(=O)O)c2csc(N)n2)C(=O)N1S(=O)(=O)O (stereo in doubt)
60000

Field request: kcat/Km | item: CC(C)(O/N=C(\C(=O)N[C@@H]1C(=O)N2C(C(=O)[O-])=C(C[n+]3ccccc3)CS[C@H]12)c1csc(N)n1)C(=O)O
50000

Field request: kcat/Km | item: CC1(C)S[C@@H]2[C@H](NC(=O)[C@H](C(=O)O)c3ccsc3)C(=O)N2[C@H]1C(=O)O
3e+06

Field request: kcat/Km | item: CC1(C)S[C@@H]2[C@H](NC(=O)[C@H](N)c3ccc(O)cc3)C(=O)N2[C@H]1C(=O)O
3.5e+06

Field request: kcat/Km | item: CO/N=C(\C(=O)N[C@@H]1C(=O)N2C(C(=O)[O-])=C(C[N+]3(C)CCCC3)CS[C@H]12)c1csc(N)n1
110000

Field request: kcat/Km | item: CCN1CCN(C(=O)N[C@@H](C(=O)N[C@@H]2C(=O)N3[C@@H]2SC(C)(C)[C@@H]3C(=O)O)c2ccccc2)C(=O)C1=O
8.6e+06

###

System: Escherichia coli
assayRemarks: Activity of Escherichia coli BL21(DE3) beta-lactamase TEM29
measuredParameter: kcat (s⁻¹)
Could you give me the number in s⁻¹? Just the number is fine.

Field request: kcat | item: CC1(C)S[C@@H]2[C@H](NC(=O)[C@H](N)c3ccc(O)cc3)C(=O)N2[C@H]1C(=O)O
91

Field request: kcat | item: CC1(C)S[C@@H]2[C@H](NC(=O)[C@H](C(=O)O)c3ccsc3)C(=O)N2[C@H]1C(=O)O
42

Field request: kcat | item: CC(C)(O/N=C(\C(=O)N[C@@H]1C(=O)N2C(C(=O)[O-])=C(C[n+]3ccccc3)CS[C@H]12)c1csc(N)n1)C(=O)O
10

Field request: kcat | item: CCN1CCN(C(=O)N[C@@H](C(=O)N[C@@H]2C(=O)N3[C@@H]2SC(C)(C)[C@@H]3C(=O)O)c2ccccc2)C(=O)C1=O
336

Field request: kcat | item: CO/N=C(\C(=O)N[C@@H]1C(=O)N2C(C(=O)[O-])=C(C[N+]3(C)CCCC3)CS[C@H]12)c1csc(N)n1
17

Field request: kcat | item: CC(=O)OCC1=C(C(=O)O)N2C(=O)[C@@H](NC(=O)Cc3cccs3)[C@H]2SC1
126

Field request: kcat | item: CO/N=C(\C(=O)N[C@@H]1C(=O)N2C(C(=O)O)=C(COC(C)=O)CS[C@H]12)c1csc(N)n1
14

Field request: kcat | item: C[C@H]1[C@H](NC(=O)/C(=N\OC(C)(C)C(=O)O)c2csc(N)n2)C(=O)N1S(=O)(=O)O (stereo in doubt)
2.1
